The measurements presented in this section are drawn from patent US10000527B2.

Consider the following compounds and their measured IC50 readings.
- Tested on: M. Tuberculosis
- measurement-notes: Anti TB ex vivo infection model, dormant
- Assay type: cell-based
- conditions: Mycobacterium tuberculosis
Response body: numeric value in ng/mL, unit text excluded.

INSERT INTO results (compound, obs_value) VALUES
  ('CO[C@H]1/C=C/O[C@@]2(C)Oc3c(C)c(O)c4c(O)c(c(/C=N/N5CCN(C)CC5)c(O)c4c3C2=O)NC(=O)/C(C)=C\C=C\[C@H](C)[C@H](O)[C@@H](C)[C@@H](O)[C@@H](C)[C@H](OC(C)=O)[C@@H]1C [RIFAMPICIN, reference compound]', 1.8),
  ('NNC(=O)c1ccncc1 [ISONIAZID, reference compound]', 2.4);

Query compound follows.
Q) Tell me the measured IC50 of CCCCCCc1cn([C@@H]2C(=O)[C@@]3(C)C(CCC3[C@H](C)CCC(=O)OC)C3C2[C@@]2(C)CC[C@@H](OC(C)=O)C[C@H]2C[C@H]3OC(C)=O)nn1 (stereo partly drawn) [Compound 2] , please.
A) 130
